Each item that follows carries a reported IC50.
Target: human dopamine transporter (Homo sapiens, UniProt Q01959)
Construct: expressed in transfected cells; host or cells: CHO-K1
Sequence (Q01959 whole entry): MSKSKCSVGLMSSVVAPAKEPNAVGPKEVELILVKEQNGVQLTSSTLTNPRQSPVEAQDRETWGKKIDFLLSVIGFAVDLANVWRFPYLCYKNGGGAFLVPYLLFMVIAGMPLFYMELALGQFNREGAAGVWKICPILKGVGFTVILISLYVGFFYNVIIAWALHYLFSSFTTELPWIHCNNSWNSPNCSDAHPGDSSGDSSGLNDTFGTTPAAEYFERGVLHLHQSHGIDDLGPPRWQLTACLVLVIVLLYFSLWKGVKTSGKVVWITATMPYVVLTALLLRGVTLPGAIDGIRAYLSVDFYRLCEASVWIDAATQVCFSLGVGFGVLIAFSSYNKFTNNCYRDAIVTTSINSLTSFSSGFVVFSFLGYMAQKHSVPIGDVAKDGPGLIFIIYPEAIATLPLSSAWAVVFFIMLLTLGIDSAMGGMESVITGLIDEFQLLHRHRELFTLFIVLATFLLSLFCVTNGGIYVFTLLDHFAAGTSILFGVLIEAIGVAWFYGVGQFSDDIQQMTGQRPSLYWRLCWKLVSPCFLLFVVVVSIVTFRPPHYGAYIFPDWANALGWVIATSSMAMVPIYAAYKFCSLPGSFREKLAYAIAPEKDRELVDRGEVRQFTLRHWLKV
Test: Binding to human dopamine transporter ([125I]RTI-55)
Conditions: human; Example 100 table; read-out: IC50 (nM) DAT

- compound: "CN1CCCC1CCNc1nc(C2(c3ccccc3F)CCCCC2)cs1 (single isomer, unassigned) [Compound 130]"
  IC50: "> 1000 nM"
- compound: "Fc1ccccc1C1(c2csc(N3CCN(CC4CC4)CC3)n2)CCCC1"
  IC50: "< 1000 nM"
- compound: "Fc1ccccc1C1(c2csc(N3CCNCC3)n2)CCCC1"
  IC50: "> 1000 nM"
- compound: "CN1CCCC1CCNc1nc(C2(c3ccccc3F)CCCC2)cs1 (stereo not shown)"
  IC50: "> 1000 nM"
- compound: "CN1CCN(c2nc(C3(c4ccccc4F)CCOCC3)cs2)CC1"
  IC50: "> 1000 nM"
- compound: "CN1CCCC1CCNc1nc(C2(c3ccc(Cl)cc3)CCOCC2)cs1 (racemic)"
  IC50: "> 1000 nM"
- compound: "CN1CCCC1CCNc1nc(C2(c3ccccc3F)CCCCC2)cs1 (racemic) [Compound 128]"
  IC50: "> 1000 nM"
- compound: "Clc1ccc(C2(c3csc(NCCN4CCOCC4)n3)CCCC2)cc1"
  IC50: "< 1000 nM"
- compound: "CN1CCC(N(C)c2nc(C3(c4ccc(Cl)cc4)CCCC3)cs2)C1 (stereo not shown)"
  IC50: "< 1000 nM"
- compound: "CNC1CCN(c2nc(C3(c4ccccc4F)CCCCC3)cs2)C1 (stereo not shown)"
  IC50: "> 1000 nM"

###

Each item that follows carries a reported IC50.
Target: human dopamine D3 receptor (Homo sapiens)
Construct: expressed in transfected cells; host or cells: CHO
Sequence (P35462 whole entry): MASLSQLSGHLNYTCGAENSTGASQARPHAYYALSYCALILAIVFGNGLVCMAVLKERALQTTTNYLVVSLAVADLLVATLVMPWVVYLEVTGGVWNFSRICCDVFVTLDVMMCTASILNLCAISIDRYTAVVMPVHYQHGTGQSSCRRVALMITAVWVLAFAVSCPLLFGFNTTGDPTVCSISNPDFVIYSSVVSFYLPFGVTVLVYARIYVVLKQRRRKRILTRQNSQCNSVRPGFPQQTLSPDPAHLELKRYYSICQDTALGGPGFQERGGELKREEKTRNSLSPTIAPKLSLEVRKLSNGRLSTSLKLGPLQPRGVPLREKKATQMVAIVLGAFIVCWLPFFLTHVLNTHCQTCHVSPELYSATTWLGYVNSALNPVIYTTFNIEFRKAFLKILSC
Test: Radioligand binding assay, human dopamine D3 receptors ([3H]Spiperone)
Settings: Example 20 table; read-out: IC50 (nM) Against Human D3 Receptors
assay metric: IC50

- compound: "CC(C)N1CCN(c2nc(C3(c4ccc(Cl)cc4)CCCCC3)cs2)CC1"
  meas value: "< 1000 nM"
- compound: "CN1CCN(c2nc(C3(c4ccc(Cl)cc4)CCCCC3)cs2)CC1"
  meas value: "< 1000 nM"
- compound: "CN1CCN(c2nc(CCc3ccc(Cl)cc3)cs2)CC1"
  meas value: "> 1000 nM"
- compound: "CN1CCN(c2nc(C3(c4ccc(F)cc4)CCCCC3)cs2)CC1"
  meas value: "< 1000 nM"
- compound: "CN1CCC(c2nc(C3(c4cccc(Cl)c4)CCOCC3)cs2)CC1"
  meas value: "> 1000 nM"
- compound: "CN1CCN(c2nc(C3(c4ccc(C(F)(F)F)cc4)CCOCC3)cs2)CC1"
  meas value: "< 1000 nM"
- compound: "Clc1ccc(C2(c3csc(NCCCN4CCOCC4)n3)CCC2)cc1"
  meas value: "> 1000 nM"
- compound: "COc1ccc(C2(c3csc(N4CCN(C)CC4)n3)CCOCC2)cc1OC"
  meas value: "> 1000 nM"
- compound: "Clc1ccc(C2(c3nc(N4CCNCC4)sc3Cl)CCOCC2)cc1"
  meas value: "> 1000 nM"
- compound: "CN1CCN(c2nc(C3(c4ccccc4F)CCCCC3)cs2)CC1"
  meas value: "< 100 nM"
- compound: "CCN1CCCC1CNc1nc(C2(c3ccc(Cl)cc3)CCC2)cs1 (stereo not drawn)"
  meas value: "< 1000 nM"
- compound: "CN1CCN(c2nc(C3(c4cccc(Cl)c4)CCOCC3)cs2)CC1"
  meas value: "< 1000 nM"
